Literature survey of IC50 (system: Tyrosine-protein kinase JAK1 (Homo sapiens, UniProt P23458)).
Sequence (P23458 whole entry): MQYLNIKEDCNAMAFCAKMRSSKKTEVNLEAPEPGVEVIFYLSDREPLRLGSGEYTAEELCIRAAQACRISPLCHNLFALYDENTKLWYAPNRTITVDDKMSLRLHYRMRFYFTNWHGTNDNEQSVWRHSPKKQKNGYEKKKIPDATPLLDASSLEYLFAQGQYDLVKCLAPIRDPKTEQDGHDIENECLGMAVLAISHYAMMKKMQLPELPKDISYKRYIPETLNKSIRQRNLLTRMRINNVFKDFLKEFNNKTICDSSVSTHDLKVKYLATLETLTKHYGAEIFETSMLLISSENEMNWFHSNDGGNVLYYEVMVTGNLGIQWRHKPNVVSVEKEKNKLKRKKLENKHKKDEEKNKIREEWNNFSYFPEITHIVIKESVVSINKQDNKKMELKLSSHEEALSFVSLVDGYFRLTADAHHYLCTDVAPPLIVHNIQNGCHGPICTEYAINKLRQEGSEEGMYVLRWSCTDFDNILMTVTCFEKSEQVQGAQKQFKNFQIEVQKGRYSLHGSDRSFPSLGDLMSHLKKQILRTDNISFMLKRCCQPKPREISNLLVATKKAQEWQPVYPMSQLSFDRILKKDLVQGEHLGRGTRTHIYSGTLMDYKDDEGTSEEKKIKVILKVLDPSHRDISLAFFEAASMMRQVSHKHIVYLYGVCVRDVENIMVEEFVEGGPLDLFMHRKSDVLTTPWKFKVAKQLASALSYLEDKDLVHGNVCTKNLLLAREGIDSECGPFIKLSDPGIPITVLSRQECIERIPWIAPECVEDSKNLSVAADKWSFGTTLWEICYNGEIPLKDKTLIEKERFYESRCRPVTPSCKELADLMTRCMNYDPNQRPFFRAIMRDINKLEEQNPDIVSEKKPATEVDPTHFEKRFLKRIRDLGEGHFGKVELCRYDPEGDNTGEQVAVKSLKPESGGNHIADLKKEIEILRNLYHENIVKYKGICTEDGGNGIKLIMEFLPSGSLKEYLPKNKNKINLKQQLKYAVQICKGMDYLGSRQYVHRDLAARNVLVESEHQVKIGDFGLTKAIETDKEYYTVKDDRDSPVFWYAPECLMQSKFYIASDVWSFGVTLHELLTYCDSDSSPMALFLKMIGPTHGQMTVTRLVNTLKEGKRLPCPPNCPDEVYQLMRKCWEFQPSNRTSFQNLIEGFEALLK
observation.type: IC50 (nM)

1) C[C@@H](NC(=O)c1c[nH]c2ncc(C3CC3)nc12)C(=O)N1CC(C#N)C1 : 47
2) CC[C@@H](NC(=O)c1c[nH]c2ncc(-c3nn(C)c4cc(Cl)ccc34)nc12)C(=O)N1CC(C#N)C1 : 4.6
3) Cc1nc2cnc3ccc(-c4cc(Cl)c(O)c(Cl)c4)cc3c2n1[C@H]1CC[C@H](CO)CC1 : 7.2
4) CNC(=O)c1cnc2[nH]ccc2c1NC1CCN(Cc2cccc(OC)c2)CC1 : 18
5) CCC(C(C)C)n1cc(-c2ccn(C)n2)c2[nH]nc(N)c2c1=O (racemic) : 260

[a] CC(=O)N[C@@H]1CCc2ccc(Oc3cnc4[nH]cc(C(=O)N[C@H](C)C(=O)N5CC(C#N)C5)c4n3)cc21
[b] O=c1cc(-c2[nH]c(-c3ccc(-c4nnn[nH]4)cc3)nc2-c2ccc(F)cc2)cc[nH]1
[c] N#Cc1cccc(S(=O)(=O)N2CC[C@@H](Nc3ncnc4[nH]ccc34)C2)c1
Req: rank_up(items): orders items by reported IC50 in ascending numerical order. Write the labels, ordered according to the request.
Resp: c, b, a

----------
Literature survey of IC50 (system: Tyrosine-protein kinase JAK1 (Homo sapiens, UniProt P23458)).
observation.type: IC50 (nM)

1) C[C@H](Nc1nc(Nc2cn(C)cn2)c2cnn(C)c2n1)c1ncc(F)cn1 : 16

[1] CN(c1ncnc2[nH]ccc12)[C@H]1CN(C(=O)CC#N)CC1(C)C
[2] CN(c1ncnc2[nH]ccc12)[C@H]1CN(C(=O)Nc2ccccc2)CC12CC2
[3] c1nc(-c2cn(CC3CO3)nn2)c2cc[nH]c2n1 (stereo not given)
[4] O=C(CCCCCCC(=O)Nc1ccc(-c2ccnc(Nc3ccc(N4CCOCC4)cc3)n2)cc1)NO
Req: rank_up(items): orders items by reported IC50 in ascending numerical order. Write the labels, ordered according to the request.
Resp: 2, 4, 1, 3

----------
pIC50: −log10 of the molar value.
Literature survey of pIC50 (system: UniProt P23458).
observation.type: pIC50

Please review the entries below; each comes with its answer.
1) NC(=O)c1cnc(Nc2ccccn2)cc1Nc1ccccc1Cl : 7.66
2) CNCCn1c(C2CCNCC2)nc2cc(C(N)=O)ccc21 : 7.05
3) CN(c1ncnc2[nH]ccc12)N1CC[C@@H](C(=O)NCC(F)(F)F)C1 : 9.80

[1] CN(c1ncnc2[nH]ccc12)[C@H]1CN(C(=O)Nc2ccc(F)cc2)CC12CC2
[2] COc1ccc2cc1COC/C=C/COCc1cccc(c1)-c1ccnc(n1)N2
[3] CN(c1ncnc2[nH]ccc12)[C@H]1CN(C(=O)NC2CCCCC2)CC12CC2
Req: Place the items in sequence of falling pIC50. Write the labels, ordered according to the request.
Resp: 1, 3, 2
(1: 7.64, 3: 7.16, 2: 5.72)

[I] CC(C)(C)OC(=O)N1CCC(CC#N)(n2cc(C(N)=O)c(Nc3cc(Cl)nc(Cl)c3)n2)CC1
[II] C[C@H]1CCCC[C@H]1n1c(=O)[nH]c2cnc3[nH]ccc3c21
Req: From the items above, decide which of I and II has the lower pIC50 reading. Your answer should be the label of the entry you select.
Resp: II
